Provenance of the data: patent US20210032312A1

molecular target: T1, cynomolgus monkey CD8A on primary cynomolgus monkey CD8+ T cells (cynomolgus monkey, UniProt P01732 23-235 (human entry)); test: flow cytometry, cyno CD8+ T cells, 0.2 uM FN3
T1 construct: also called Cyno CD8alpha
T1 sequence (P01732 other isoform, or with tags, fused parts or gaps limits assumed): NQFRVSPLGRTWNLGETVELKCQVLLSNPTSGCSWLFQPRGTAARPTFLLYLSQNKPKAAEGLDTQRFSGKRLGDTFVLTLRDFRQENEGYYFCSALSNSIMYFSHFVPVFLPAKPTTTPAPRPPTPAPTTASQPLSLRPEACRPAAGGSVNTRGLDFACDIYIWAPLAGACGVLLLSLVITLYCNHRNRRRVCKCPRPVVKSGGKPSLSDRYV
QUANTITY_NAME: Cyno T-cell Binding 0.2 uM (MFI)
Please give a number only; it is taken to be in MFI.

# example entries with known answers
P283BR9P1363_D11 (designed binder, FN3 domain) LPAPKNLVVSRVTEDSARLSWNKKHDGQPTFDSFLIQYQESEKVGEAIVLTVPGSERSYDLTGLKPGTEYTVSIYGVDVVYEGSYPASSNPLSAIFTT ... 11600
P283BR9P1363_E4 (designed binder, FN3 domain) LPAPKNLVVSRVTEDSARLSWIKSETSQPAFDSFLIQYQESEKVGEAIVLTVPGSERSYDLTGLKPGTEYTVSIYGVDVKWEGNRPVASNPLSAIFTT ... 2470

Asked: Requested read-out: Cyno T-cell Binding 0.2 uM (MFI). Entry: P283AR9P1362_F8 (designed binder, FN3 domain) LPAPKNLVVSRVTEDSARLSWGYYHGHFDSFLIQYQESEKVGEAIVLTVPGSERSYDLTGLKPGTEYTVSIYGVDVKWEGNRPVASNPLSAIFTT
Given back: 4570

Asked: // next record P283BR9P1363_C4 (designed binder, FN3 domain) LPAPKNLVVSRVTEDSARLSWPIVNTPLHFDSFLIQYQESEKVGEAIVLTVPGSERSYDLTGLKPGTEYTVSIYGVDVQYTATGQPERSNPLSAIFTT
Given back: 3270
